# test.protocol: Plasma protein binding in rat serum by equilibrium dialysis method
experimental.endpoint: fraction unbound
Output: the number by itself.

compound.string	numeric.value
O=C(O)c1cn(Cc2ccc(-c3cccnc3)cc2)c2cccc(F)c2c1=O	0.051
O=C(O)c1cn(Cc2ccc(-c3cn[nH]c3)cc2F)c2cccc(F)c2c1=O	0.02
O=C(O)c1cn(Cc2ccc(-c3cccc(CO)n3)cc2)c2c(F)cccc2c1=O	0.022

Now examine the next entry.
Problem: Find the recorded fraction unbound belonging to O=C(O)c1cn(Cc2ccc(-c3cccc4cccnc34)cc2)c2cccc(F)c2c1=O and report it.
Result: 0.015

###

Each entry below lists one item and its recorded fraction unbound value.
# test.protocol: Plasma protein binding in human serum by equilibrium dialysis method
Output: the number by itself.

compound.string	numeric.value
O=C(O)c1cn(Cc2ccc(-c3cn[nH]c3)cc2F)c2cccc(F)c2c1=O	0.044

Problem: Find the recorded fraction unbound belonging to O=C(O)c1cn(Cc2ccc(-c3cccc(CO)n3)cc2)c2c(F)cccc2c1=O and report it.
Result: 0.058

Problem: Find the recorded fraction unbound belonging to O=C(O)c1cn(Cc2ccc(-c3cccnc3)cc2)c2cccc(F)c2c1=O and report it.
Result: 0.055

From: ChEMBL document CHEMBL1153216
